Origin of measurements: patent EP4548971A1

# target-of-assay: SERCA2 (Homo sapiens)
# Construct: endogenous in cells; host or cells: HEK-293T cells, microsomal membrane vesicles
# Sequence (P16615 whole entry): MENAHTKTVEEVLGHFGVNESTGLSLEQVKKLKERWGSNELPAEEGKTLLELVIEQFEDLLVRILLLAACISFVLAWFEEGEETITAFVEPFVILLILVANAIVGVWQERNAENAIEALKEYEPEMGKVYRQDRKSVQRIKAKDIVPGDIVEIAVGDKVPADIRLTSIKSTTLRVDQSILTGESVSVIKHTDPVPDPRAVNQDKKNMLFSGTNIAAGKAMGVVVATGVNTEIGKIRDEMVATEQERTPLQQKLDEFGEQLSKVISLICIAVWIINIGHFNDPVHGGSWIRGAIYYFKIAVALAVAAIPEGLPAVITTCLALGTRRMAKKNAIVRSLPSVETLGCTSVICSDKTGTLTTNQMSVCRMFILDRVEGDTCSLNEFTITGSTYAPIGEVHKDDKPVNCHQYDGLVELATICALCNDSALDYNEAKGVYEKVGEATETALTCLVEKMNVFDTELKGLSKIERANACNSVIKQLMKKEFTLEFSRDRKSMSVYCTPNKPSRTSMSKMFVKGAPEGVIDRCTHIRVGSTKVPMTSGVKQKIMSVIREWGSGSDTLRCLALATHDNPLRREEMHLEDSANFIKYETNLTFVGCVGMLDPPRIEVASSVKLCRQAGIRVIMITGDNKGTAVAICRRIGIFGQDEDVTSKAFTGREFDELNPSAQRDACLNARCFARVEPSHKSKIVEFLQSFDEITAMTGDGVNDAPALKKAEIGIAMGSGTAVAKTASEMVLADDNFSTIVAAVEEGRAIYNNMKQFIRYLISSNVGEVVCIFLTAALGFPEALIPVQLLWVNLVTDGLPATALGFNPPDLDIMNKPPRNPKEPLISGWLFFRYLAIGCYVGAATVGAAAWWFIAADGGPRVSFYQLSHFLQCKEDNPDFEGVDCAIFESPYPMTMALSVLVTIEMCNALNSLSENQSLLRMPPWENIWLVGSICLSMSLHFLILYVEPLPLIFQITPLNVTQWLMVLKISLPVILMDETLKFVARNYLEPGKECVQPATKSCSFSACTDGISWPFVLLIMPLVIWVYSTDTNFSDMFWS
# experiment: NADH-coupled ATPase assay on microsomal membrane vesicles from HEK-293T cells (HEK-293 ER)
# Type: biochemical
# Set-up: key: +++: a strong effect, comparable to or greater than that of a known compounds at a given concentration (25 µM in RyR2 R-CEPIA1er assay, 10 µM in caffeine assay and on microsomal membrane vesicles); ++: moderate effect; +: observable effect; -: no effect
# condition-set: 10 µM on microsomal membrane vesicles
measurement-label: SERCA2a HEK ER effect class

# compound, SERCA2a HEK ER effect class
measured = [
    ("COc1ccc2c(c1)CN(CCCCN(CCCCC1(O)CC1)CCCCC1(O)CC1)CCS2 [Compound 14a]", "++"),
    ("COc1ccc2c(c1)CN(CCCCNCCCCC1(O)CC1)CCS2 [Compound 13a]", "-"),
    ("COc1ccc2c(c1)CN(CCCCC1(O)CC1)CCS2 [Compound 13d]", "+"),
    ("COc1ccc2c(c1)CN(Cc1ccc(C(=O)O)cc1)CCS2 [ARM210, reference compound]", "+"),
    ("COc1ccc(SCCCNCCCCC2(O)CC2)cc1 [Compound 13c]", "+"),
    ("COc1ccc(OCCCNCCCCC2(O)CC2)cc1 [Compound 13b]", "-"),
]

--- query ---
**Query** Look at this compound and give its reported SERCA2a HEK ER effect class. COc1ccc(SCCCN(CCCCC2(O)CC2)CCCCC2(O)CC2)cc1 [Compound 14c]
**Result** +

* * *

# target-of-assay: SERCA2a (Mus musculus, UniProt O55143)
# Construct: host or cells: HL-1 cardiac cells
# Sequence (O55143 1-998 isoform O55143-2): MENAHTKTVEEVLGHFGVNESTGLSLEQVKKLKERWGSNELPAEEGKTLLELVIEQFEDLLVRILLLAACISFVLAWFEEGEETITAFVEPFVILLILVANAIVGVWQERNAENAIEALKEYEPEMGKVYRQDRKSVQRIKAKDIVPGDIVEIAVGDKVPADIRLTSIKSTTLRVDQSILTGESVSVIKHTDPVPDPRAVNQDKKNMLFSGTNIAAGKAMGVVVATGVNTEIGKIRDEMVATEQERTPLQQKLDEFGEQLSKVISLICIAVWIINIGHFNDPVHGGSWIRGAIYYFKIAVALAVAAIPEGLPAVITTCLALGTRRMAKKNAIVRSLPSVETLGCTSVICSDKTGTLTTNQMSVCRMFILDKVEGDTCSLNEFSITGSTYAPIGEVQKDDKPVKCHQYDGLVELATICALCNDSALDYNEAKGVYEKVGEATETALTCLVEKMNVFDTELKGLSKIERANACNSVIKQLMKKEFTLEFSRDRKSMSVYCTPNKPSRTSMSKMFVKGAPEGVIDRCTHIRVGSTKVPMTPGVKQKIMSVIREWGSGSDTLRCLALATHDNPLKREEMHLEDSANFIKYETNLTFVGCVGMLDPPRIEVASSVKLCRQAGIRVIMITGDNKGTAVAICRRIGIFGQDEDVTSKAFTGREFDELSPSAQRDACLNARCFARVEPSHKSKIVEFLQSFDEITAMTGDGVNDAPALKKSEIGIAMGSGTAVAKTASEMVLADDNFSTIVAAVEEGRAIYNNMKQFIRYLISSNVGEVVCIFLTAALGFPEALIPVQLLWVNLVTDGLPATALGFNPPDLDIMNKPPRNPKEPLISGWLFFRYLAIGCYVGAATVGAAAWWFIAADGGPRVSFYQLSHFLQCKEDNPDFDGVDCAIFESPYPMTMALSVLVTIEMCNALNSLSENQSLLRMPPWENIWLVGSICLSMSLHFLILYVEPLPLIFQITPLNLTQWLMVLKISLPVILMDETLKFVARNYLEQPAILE
# experiment: Caffeine-induced Ca2+ release assay on HL-1 cells
# Assay type: cell-based
# condition-set: caffeine-induced Ca2+ release, 10 mM caffeine; range after the semicolon is not explained
measurement-label: pEC50
Friendly reminder that pEC50 comes from taking -log10 of the concentration in mol/L.

**Query** Observed pEC50 on SERCA2a (Mus musculus, UniProt O55143) for COc1ccc2c(c1)CN(CCCCNCCCCC1(O)CC1)CCS2 [Compound 13a] , please.
**Result** 5.66

**Query** Observed pEC50 on SERCA2a (Mus musculus, UniProt O55143) for COc1ccc(SCCCN(CCCCC2(O)CC2)CCCCC2(O)CC2)cc1 [Compound 14c] , please.
**Result** 4.96

**Query** Observed pEC50 on SERCA2a (Mus musculus, UniProt O55143) for COc1ccc2c(c1)CN(CCCCN(CCCCC1(O)CC1)CCCCC1(O)CC1)CCS2 [Compound 14a] , please.
**Result** 5.04

**Query** Observed pEC50 on SERCA2a (Mus musculus, UniProt O55143) for COc1ccc(OCCCNCCCCC2(O)CC2)cc1 [Compound 13b] , please.
**Result** 5.07

**Query** Observed pEC50 on SERCA2a (Mus musculus, UniProt O55143) for COc1ccc(SCCCNCCCCC2(O)CC2)cc1 [Compound 13c] , please.
**Result** 5.12

* * *

# Tested on: RyR2-WT iPSC cardiomyocytes
# experiment: Electrically induced Ca2+ transients in intact iPSC-derived cardiomyocytes, RyR2-WT
# Type: cell-based, human
# condition-set: Homo sapiens, iPSC, estimated from non-linear fit, read-out: IC50 values for the rise times of Ca2+ transients
measurement-label: IC50
# output: numeric value plus its unit

# compound, target-of-assay, IC50
data = [
    ("COc1ccc2c(c1)CN(C(=O)C(=O)O)CCS2 [Compound S36, reference compound]", "RyR2-WT iPSC cardiomyocytes", "0.15 nM"),
]

--- query ---
**Query** Look at this compound and give its reported IC50. COc1ccc2c(c1)CN(CCCCN(CCCCC1(O)CC1)CCCCC1(O)CC1)CCS2 [Compound 14a]
**Result** 0.025 nM
